molecular target: wild-type HIV-1 protease (Human immunodeficiency virus type 1 group M subtype B, UniProt P04585)
Parameter measured: pIC50
Please report pIC50 as the negative decimal logarithm of the molar concentration, giving only the number.

Consider the following illustrative entries.
N#Cc1ccc(CNC(=O)c2cccc(CN3C(=N)NC(c4ccc(F)cc4)(c4ccc(F)cc4)C3=O)c2)cc1 | 7.02
CC(C)CC1(c2ccccc2)NC(=N)N(Cc2cc(C(=O)N(C)Cc3ccc(Cl)cc3)ccn2)C1=O (stereo not shown) | 7.47
C[C@H](c1ccc(F)cc1)N(C)C(=O)c1cccc(CN2C(=N)NC(c3ccccc3)(c3ccccc3)C2=O)c1 | 7.93

Moving on to another compound below.
Look up pIC50: "C[C@H](c1ccccc1)N(C)C(=O)c1cccc(CN2C(=N)NC(c3ccccc3)(c3ccccc3)C2=O)c1" 7.40

====

target: UniProt P04585
Strictly below 20 nM in IC50: condition met. Otherwise: condition not met.

Worked examples follow.
CC(C)CCC1(c2ccccc2)NC(=N)N(Cc2cncc(C(=O)N(C)Cc3ccc(C#N)cc3)c2)C1=O (stereo not shown) | condition not met
CN(Cc1ccc(Cl)cn1)C(=O)c1cccc(CN2C(=N)NC(c3ccc(F)cc3)(c3ccc(F)cc3)C2=O)c1 | condition met
CN(Cc1ccc(F)cc1)C(=O)c1cccc(CN2C(=N)NC(c3ccc(F)cc3)(c3ccc(F)cc3)C2=O)c1 | condition met
CN(Cc1cccc(S(C)(=O)=O)c1)C(=O)c1cccc(CN2C(=N)NC(c3ccc(F)cc3)(c3ccc(F)cc3)C2=O)c1 | condition not met
CC(C)CC1(c2ccccc2)NC(=N)N(Cc2ccc(Cl)c(C(=O)NCc3ccc(C#N)cc3)c2)C1=O (stereo not shown) | condition met
CN(Cc1ccccc1F)C(=O)c1cccc(CN2C(=N)NC(c3ccc(F)cc3)(c3ccc(F)cc3)C2=O)c1 | condition not met
CN(Cc1cccnc1)C(=O)c1cccc(CN2C(=N)NC(c3ccc(F)cc3)(c3ccc(F)cc3)C2=O)c1 | condition not met
CC(C)CCC1(c2ccccc2)NC(=N)N(Cc2cccc(C(=O)N(C)Cc3ccc(Cl)cc3)c2)C1=O (stereo not shown) | condition met

I wonder whether CC(C)CC1(c2cccc(F)c2)NC(=N)N(Cc2cccc(C(=O)N(C)Cc3ccc(C#N)cc3)c2)C1=O (stereo not shown) has IC50 below 20 nM. Can you tell? condition not met

====

Entries annotated with measured IC50
molecular target: wild-type HIV-1 protease (Human immunodeficiency virus type 1 group M subtype B, UniProt P04585)
Give the quantity in nM, number only.

Consider the following illustrative entries.
COc1ccc(CN2C(=N)NC(c3ccccc3)(c3ccccc3)C2=O)cc1C(=O)N(C)[C@H](C)c1ccccc1 [Example 77] | 43.4
CN(Cc1ccc(C#N)cc1)C(=O)c1cccc(CN2C(=N)NC(c3ccc(F)cc3)(c3ccc(F)cc3)C2=O)c1 [Example 13] | 6.69
CC(C)CC1(c2ccccc2)NC(=N)N(Cc2ccc(Cl)c(C(=O)NCc3cnccn3)c2)C1=O (centres unmarked) [Example 75] | 31.3
CN(Cc1ccccn1)C(=O)c1cccc(CN2C(=N)NC(c3ccc(F)cc3)(c3ccc(F)cc3)C2=O)c1 [Example 59] | 65.9
CN(Cc1ccc(Cl)cc1)C(=O)c1cccc(CN2C(=N)NC(c3ccc(F)cc3)(c3cccc(C(N)=O)c3)C2=O)c1 (centres unmarked) [Example 19] | 11.6
CN(C)C(=O)c1cccc(CN2C(=N)NC(c3ccc(F)cc3)(c3cccc(-c4cccc(C#N)c4)c3)C2=O)c1 (centres unmarked) [Example 58] | 63.4
CN(Cc1ccc(Cl)cn1)C(=O)c1cncc(CN2C(=N)NC(c3ccc(F)cc3)(c3ccc(F)cc3)C2=O)c1 [Example 82] | 43.7
N=C1NC(c2ccc(F)cc2)(c2ccc(F)cc2)C(=O)N1Cc1ccc(C(F)(F)F)c(C(=O)NCc2cnccn2)c1 [Example 4] | 30.9
CN(Cc1ccc(Cl)cc1)C(=O)c1ccnc(CN2C(=N)NC(c3ccccc3)(c3ccccc3)C2=O)c1 [Example 86] | 7.72
N=C1NC(c2ccccc2)(c2ccccc2)C(=O)N1Cc1ccc(Cl)c(C(=O)NCc2cnccn2)c1 [Example 73] | 11

Look up IC50: N#Cc1ccc(CNC(=O)c2cc(CN3C(=N)NC(c4ccccc4)(c4ccccc4)C3=O)ccc2Cl)cc1 [Example 74] 11.4

Look up IC50: CC(C)CCC1(c2cccc(F)c2)NC(=N)N(Cc2cccc(C(=O)N(C)Cc3ccc(Cl)cc3)c2)C1=O (centres unmarked) [Example 49] 43.5

Look up IC50: CCCC1(c2ccccc2)NC(=N)N(Cc2cccc(C(=O)N(C)Cc3ccc(Cl)cn3)c2)C1=O (centres unmarked) [Example 47] 33.3

Look up IC50: C[C@H](c1ccc(F)cc1)N(C)C(=O)c1cccc(CN2C(=N)NC(c3ccc(F)cc3)(c3ccc(F)cc3)C2=O)c1 [Example 44] 29.2

====

Entries annotated with measured pIC50
target: wild-type HIV-1 protease (Human immunodeficiency virus type 1 group M subtype B, UniProt P04585)
Please report pIC50 as the negative decimal logarithm of the molar concentration, giving only the number.

Consider the following illustrative entries.
CC(C)CCC1(c2ccccc2)NC(=N)N(Cc2cc(C(=O)N(C)Cc3ccc(C#N)cc3)ccn2)C1=O (stereo not shown) | 7.77
CN(C)C(=O)c1cccc(CN2C(=N)NC(c3ccccc3)(c3ccc(-c4cccc(C#N)c4)cc3)C2=O)c1 (stereo not shown) | 7.28

Look up pIC50: CC(C)CCC1(c2cccc(-c3cccnc3)c2)NC(=N)N(Cc2cccc(C(=O)N(C)Cc3ccc(C#N)cc3)c2)C1=O (stereo not shown) 7.72

Look up pIC50: CN(C)C(=O)c1cccc(C2(c3ccc(F)cc3)NC(=N)N(Cc3cccc(C(=O)N(C)Cc4ccc(Cl)cc4)c3)C2=O)c1 (stereo not shown) 7.70

====

Entries annotated with measured IC50
molecular target: wild-type HIV-1 protease (Human immunodeficiency virus type 1 group M subtype B, UniProt P04585)
Give the quantity in nM, number only.

CC(C)C[C@@]1(c2ccccc2)NC(=N)N([C@H](C)c2cccc(C(=O)N(C)Cc3ccc(F)cc3)c2)C1=O | 52.9

Look up IC50: "CN(Cc1ccccc1S(C)(=O)=O)C(=O)c1cccc(CN2C(=N)NC(c3ccc(F)cc3)(c3ccc(F)cc3)C2=O)c1" 48.3

Look up IC50: "N#Cc1ccc(CNC(=O)c2cc(CN3C(=N)NC(c4ccc(F)cc4)(c4ccc(F)cc4)C3=O)ccc2C(F)(F)F)cc1" 43

Look up IC50: CN(Cc1ccc(Cl)cc1)C(=O)c1cccc(CN2C(=N)NC(c3ccc(F)cc3)(c3cccc(-c4cccc(C#N)c4)c3)C2=O)c1 (stereo not shown) 86.9

Look up IC50: CC(C)CC1(c2ccccc2)NC(=N)N(Cc2ccc(C(F)(F)F)c(C(=O)NCc3ccc(C#N)cc3)c2)C1=O (stereo not shown) 16

Look up IC50: "CN(Cc1ccc(Cl)nc1)C(=O)c1cccc(CN2C(=N)NC(c3ccc(F)cc3)(c3ccc(F)cc3)C2=O)c1" 10.3

Look up IC50: "CN(Cc1ccccc1S(C)(=O)=O)C(=O)c1cc(CN2C(=N)NC(c3ccccc3)(c3ccccc3)C2=O)ccc1C(F)(F)F" 22.3

====

Entries annotated with measured IC50
molecular target: wild-type HIV-1 protease (Human immunodeficiency virus type 1 group M subtype B, UniProt P04585)
Give the quantity in nM, number only.

Consider the following illustrative entries.
CN(Cc1ccc(F)cc1)C(=O)c1csc(CN2C(=N)NC(c3ccccc3)(c3ccccc3)C2=O)c1 | 8.9
CN(Cc1ccc(Cl)cc1)C(=O)c1cccc(CN2C(=N)NC(c3ccc(F)cc3)(c3cccc(C#N)c3)C2=O)c1 (stereo not drawn) | 23.5
CN(Cc1cccc(F)c1)C(=O)c1cccc(CN2C(=N)NC(c3ccc(F)cc3)(c3ccc(F)cc3)C2=O)c1 | 96.6
CN(C)C(=O)c1cccc(CN2C(=N)NC(c3ccccc3)(c3cccc(-c4ccco4)c3)C2=O)c1 (stereo not drawn) | 56.3
CC(C)CC1(c2ccccc2)NC(=N)N(Cc2ccc(Cl)c(C(=O)N[C@H](C)c3ccc(F)cc3)c2)C1=O (stereo partly drawn) | 40.1

Moving on to another compound below.
Look up IC50: CCCC1(c2ccccc2)NC(=N)N(Cc2cccc(C(=O)N(C)Cc3ccc(F)cc3)c2)C1=O (stereo not drawn) 28.7

====

biological target: wild-type HIV-1 protease (Human immunodeficiency virus type 1 group M subtype B, UniProt P04585)
Parameter measured: pIC50
Please report pIC50 as the negative decimal logarithm of the molar concentration, giving only the number.

Consider the following illustrative entries.
CC(C)C[C@]1(c2ccccc2)NC(=N)N([C@H](C)c2cccc(C(=O)N(C)Cc3ccc(F)cc3)c2)C1=O [Example 33] | 7.70
CN(Cc1ccc(C#N)cc1)C(=O)c1cc(CN2C(=N)NC(c3ccccc3)(c3ccccc3)C2=O)ccc1C(F)(F)F [Example 2] | 7.74
CN(Cc1ccc(Cl)cc1)C(=O)c1ccnc(CN2C(=N)NC(c3ccc(F)cc3)(c3ccc(F)cc3)C2=O)c1 [Example 89] | 7.72
CN(Cc1ccc(Cl)cc1)C(=O)c1cncc(CN2C(=N)NC(c3ccc(F)cc3)(c3ccc(F)cc3)C2=O)c1 [Example 81] | 7.64
CN(Cc1ccc(Cl)cc1)C(=O)c1cccc(CN2C(=N)NC(c3ccc(F)cc3)(c3cccc(Br)c3)C2=O)c1 (stereo not shown) [Example 40] | 7.59

Look up pIC50: CN(Cc1ccc(C#N)cc1)C(=O)c1ccnc(CN2C(=N)NC(c3ccccc3)(c3ccccc3)C2=O)c1 [Example 85] 8.27

Look up pIC50: CCCC1(c2ccccc2)NC(=N)N(Cc2cccc(C(=O)N(C)Cc3ccc(Cl)cc3)c2)C1=O (stereo not shown) [Example 27] 7.77

Look up pIC50: CN(Cc1ccc(Cl)cc1)C(=O)c1cccc(CN2C(=N)NC(c3ccc(F)cc3)(c3ccc(F)cc3)C2=O)c1 [Example 30] 7.75

Look up pIC50: CN(C)C(=O)c1cccc(CN2C(=N)NC(c3ccccc3)(c3ccc(-c4ccccc4)cc3)C2=O)c1 (stereo not shown) [Example 45] 7.52

Look up pIC50: CC(C)CC1(c2ccc(F)cc2)NC(=N)N(Cc2cccc(C(=O)N(C)Cc3ccc(Cl)cc3)c2)C1=O (stereo not shown) [Example 16] 8.04

Look up pIC50: CC(C)CC[C@]1(c2ccccc2)NC(=N)N([C@H](C)c2cccc(C(=O)N(C)Cc3ccc(F)cc3)c2)C1=O [Example 15] 8.04

Look up pIC50: CCN(Cc1ccc(F)cc1)C(=O)c1cccc(CN2C(=N)NC(c3ccc(F)cc3)(c3ccc(F)cc3)C2=O)c1 [Example 42] 7.54

Look up pIC50: CC(C)CC1(c2ccccc2)NC(=N)N(Cc2cccc(C(=O)N(C)Cc3ccc(Cl)cc3)c2)C1=O (stereo not shown) [Example 25] 7.86

Look up pIC50: CN(Cc1ccc(F)cc1)C(=O)c1cncc(CN2C(=N)NC(c3ccc(F)cc3)(c3ccc(F)cc3)C2=O)c1 [Example 80] 7.81

Look up pIC50: COc1ccccc1CN(C)C(=O)c1cccc(CN2C(=N)NC(c3ccc(F)cc3)(c3ccc(F)cc3)C2=O)c1 [Example 61] 7.11
